- Study system: Histamine H2 receptor (Homo sapiens, UniProt P25021)
- Sequence (P25021 whole entry): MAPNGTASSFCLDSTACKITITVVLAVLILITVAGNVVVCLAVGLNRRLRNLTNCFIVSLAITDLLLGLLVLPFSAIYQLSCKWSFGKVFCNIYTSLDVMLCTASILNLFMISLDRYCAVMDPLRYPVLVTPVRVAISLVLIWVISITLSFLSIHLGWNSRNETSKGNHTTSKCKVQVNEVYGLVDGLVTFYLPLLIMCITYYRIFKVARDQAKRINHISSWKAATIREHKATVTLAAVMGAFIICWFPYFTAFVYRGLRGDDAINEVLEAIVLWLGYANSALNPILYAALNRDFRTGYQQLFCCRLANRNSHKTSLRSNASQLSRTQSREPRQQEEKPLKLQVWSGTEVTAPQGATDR
Value kind: Ki (µM)
Hi! Could you send only the number? It should be in µM, unit omitted.

Request: Fetch value of Ki on Histamine H2 receptor (Homo sapiens, UniProt P25021) for "N#C/N=C(/NCCCCc1c[nH]cn1)NCCSc1ccccc1" .
Result: 4.07

----------
- Study system: Histamine H2 receptor (Homo sapiens)
- Assay summary: Agonist activity at human histamine H2 receptor expressed in Sf9 cells coexpressing GsalphaS protein by steady-state GTPase assay
Rule: measured EC50 below 4 µM gets Criterion met; anything equal to or greater than 4 µM gets Criterion not met.

Request: Find out if reported EC50 for "NC(=O)N=C(NCCCCc1c[nH]cn1)NCCCc1ccccc1" is less than 4 µM
Result: Criterion met

Request: In the record for "NC(=O)NC(=NCCCc1cnc[nH]1)NCCCCc1ccccc1" , is EC50 less than 4 µM?
Result: Criterion met

Request: Please check: EC50 for "N#C/N=C(/NCCCc1ccccc1)NCCc1c[nH]cn1" , strictly under 4 µM or not?
Result: Criterion not met

Request: Quick check: EC50 of "N=C(NCCCc1c[nH]cn1)NS(=O)(=O)CCc1ccccc1" under 4 µM?
Result: Criterion not met

Request: Answer whether the compound "Cc1nc[nH]c1CCN" has EC50 strictly less than 4 µM
Result: Criterion met

Request: Check if EC50 falls below 4 µM for "Cc1ccc(S(=O)(=O)NC(=N)NCCCc2c[nH]cn2)cc1" .
Result: Criterion not met

Request: Lab log: compare recorded EC50 with 4 µM; is it strictly lower for "N#C/N=C(\NCCCCc1ccccc1)NCCCc1c[nH]cn1" ?
Result: Criterion not met

Request: Could you please tell me whether EC50 recorded for "NC(=O)/N=C(/NCCCc1ccccc1)NCCc1c[nH]cn1" is less than 4 µM?
Result: Criterion met

Request: Does the reported EC50 of the following compound sit strictly below 4 µM? "N#C/N=C(/NCCCc1c[nH]cn1)NCCSc1ccccc1"
Result: Criterion not met

Request: Confirm or reject: EC50 of "NC(=O)NC(=NCCCc1cnc[nH]1)NCCCc1ccccc1" lies strictly below 4 µM
Result: Criterion met

Request: API: query returns whether the compound falls strictly under 4 µM in EC50. Query: "N#C/N=C(\NCCCc1ccccc1)NCCCc1c[nH]cn1"
Result: Criterion not met

----------
Assignment: determine reported pKb for the given compounds.
- Study system: Histamine H2 receptor (Homo sapiens)
- Assay summary: Antagonist activity at human histamine H2 receptor expressed in Sf9 cells coexpressing GsalphaS protein by steady-state GTPase assay
- Assay type: functional

Request: Retrieve pKb on Histamine H2 receptor (Homo sapiens); query "N#C/N=C(\N)NCCCCc1c[nH]cn1"
Result: < 5

Request: Provide measured pKb on Histamine H2 receptor (Homo sapiens) for "CCN/C(=N/C#N)NCCCCCc1c[nH]cn1" please.
Result: 5.37

Request: Give pKb for CC(CCN/C(=N\C#N)NCCCCc1c[nH]cn1)c1ccccc1 (stereo not given) tested on Histamine H2 receptor (Homo sapiens).
Result: < 5

Request: Give the observed pKb of "N#C/N=C(/NCCCCc1c[nH]cn1)NCCC(c1ccccc1)c1ccccc1" for Histamine H2 receptor (Homo sapiens).
Result: 5

Request: Look up Histamine H2 receptor (Homo sapiens) data: pKb of "N#C/N=C(/NCCCCc1c[nH]cn1)NCCCc1ccc(F)cc1" , then report it.
Result: 5.28

Request: Provide the reported pKb (system: Histamine H2 receptor (Homo sapiens)) for "N#C/N=C(/NCCCCc1c[nH]cn1)NCCCc1cccnc1"
Result: 5.92

Request: Under Histamine H2 receptor (Homo sapiens), report pKb for "N#C/N=C(/NCCCc1c[nH]cn1)NCCC(c1ccccc1)c1ccccc1"
Result: < 5

Request: Tell me pKb of "CN/C(=N\C#N)NCCCCCc1c[nH]cn1" when tested on Histamine H2 receptor (Homo sapiens).
Result: 5.66

Request: For Histamine H2 receptor (Homo sapiens), give the measured pKb of the entry "N#C/N=C(/NCCCCc1c[nH]cn1)NCCCc1ccccc1"
Result: 5.25

Request: Fill: pKb (Histamine H2 receptor (Homo sapiens)) for this compound "N#C/N=C(\NCCCCc1ccccc1)NCCCc1c[nH]cn1"
Result: 5.03

Request: Tell me its pKb on Histamine H2 receptor (Homo sapiens): "N#C/N=C(/NCCCCc1c[nH]cn1)NCCCc1ccncc1"
Result: 5.11

Request: System Histamine H2 receptor (Homo sapiens). Read-out pKb. Item "N#C/N=C(\NCCSc1ccccc1)NCCc1c[nH]cn1" . Report value.
Result: < 5

Request: Report pKb from Histamine H2 receptor (Homo sapiens) testing of "CC(C)CN/C(=N\C#N)NCCCCCc1c[nH]cn1"
Result: < 5

Request: Provide pKb, recorded with Histamine H2 receptor (Homo sapiens), of "N#C/N=C(/NCCCc1c[nH]cn1)NCCc1ccccc1"
Result: < 5

Request: Specify pKb for "CN/C(=N\C#N)NCCCCc1c[nH]cn1" , system Histamine H2 receptor (Homo sapiens).
Result: < 5

Request: Report measured pKb on Histamine H2 receptor (Homo sapiens); entry: "N#C/N=C(/NCCCc1c[nH]cn1)NCCc1c[nH]c2ccccc12"
Result: < 5

Request: With Histamine H2 receptor (Homo sapiens) as the test system, provide measured pKb for this compound: "CC(C)N/C(=N\C#N)NCCCCc1c[nH]cn1"
Result: < 5

Request: Fetch value of pKb on Histamine H2 receptor (Homo sapiens) for "Cc1[nH]cnc1CSCCN/C(=N\C#N)NCCCc1ccccc1" .
Result: 5.74

Request: Give measured pKb for "N#C/N=C(/NCCCCc1c[nH]cn1)NCCCC1CCCCC1" (Histamine H2 receptor (Homo sapiens)).
Result: < 5

Request: Look up and report pKb, with Histamine H2 receptor (Homo sapiens) as system, for "CC(C)CN/C(=N\C#N)NCCCCc1c[nH]cn1"
Result: < 5

Request: Enter measured pKb, system Histamine H2 receptor (Homo sapiens), for the compound shown: "N#C/N=C(\NCCCCc1ccccc1)NCCCCc1c[nH]cn1"
Result: 5.03

Request: Quote pKb with test system Histamine H2 receptor (Homo sapiens) for "N#C/N=C(\NCCCCCc1c[nH]cn1)NCCSc1ccccc1"
Result: 5.21

Request: Quote pKb with test system Histamine H2 receptor (Homo sapiens) for "N#C/N=C(/NCCCCc1c[nH]cn1)NCCSc1ccccc1"
Result: < 5

Request: Give pKb for "N#C/N=C(/NCCc1c[nH]cn1)NCCC(c1ccccc1)c1ccccc1" tested on Histamine H2 receptor (Homo sapiens).
Result: < 5

Request: Report pKb on Histamine H2 receptor (Homo sapiens) for this entry: "N#C/N=C(\NCCCc1ccccc1)NCCCc1c[nH]cn1"
Result: 5.25

----------
- Study system: UniProt P25021
- Assay summary: Agonist activity at human histamine H2 receptor expressed in Sf9 cells coexpressing GsalphaS protein at 1 mM by steady-state GTPase assay
- Type: functional
Calls of active or inactive are those of the source. The calls are words filed in the database; no cut-off is given here.
Value kind: Activity

1. N#C/N=C(\NCCc1ccccc1)NCCc1c[nH]cn1 :: inactive
2. Cc1nc[nH]c1CCN [4-METHYLHISTAMINE] :: inactive
3. N#C/N=C(/NCCCc1c[nH]cn1)NCCc1c[nH]c2ccccc12 :: inactive
4. N#C/N=C(/NCCCc1c[nH]cn1)NCCc1ccccc1 :: inactive

----------
- Study system: UniProt P35367
- Sequence (P35367 whole entry): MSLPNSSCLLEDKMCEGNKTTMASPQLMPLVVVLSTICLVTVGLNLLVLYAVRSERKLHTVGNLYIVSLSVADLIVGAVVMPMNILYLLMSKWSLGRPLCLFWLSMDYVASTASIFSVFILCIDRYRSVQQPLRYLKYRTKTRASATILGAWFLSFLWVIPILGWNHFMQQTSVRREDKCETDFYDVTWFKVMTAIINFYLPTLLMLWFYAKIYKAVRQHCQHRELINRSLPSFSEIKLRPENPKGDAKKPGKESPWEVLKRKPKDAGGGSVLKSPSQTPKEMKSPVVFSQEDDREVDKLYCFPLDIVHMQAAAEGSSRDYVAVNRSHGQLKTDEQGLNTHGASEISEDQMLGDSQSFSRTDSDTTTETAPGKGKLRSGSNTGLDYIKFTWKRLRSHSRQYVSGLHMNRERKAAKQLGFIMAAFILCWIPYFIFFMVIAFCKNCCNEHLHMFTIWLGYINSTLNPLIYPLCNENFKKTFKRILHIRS
- Assay summary: Antagonist activity at human histamine H1 receptor expressed in Sf9 cells coexpressing RGS4 by steady-state GTPase assay
- Format: functional
Hi there, I'd appreciate the recorded pKb for every entry that follows.

Request: Give the reported value of pKb for this record: CC(CCN/C(=N\C#N)NCCCCc1c[nH]cn1)c1ccccc1 (centres undefined)
Result: < 5

Request: Query pKb for "N#C/N=C(/NCCCc1ccccc1)NCCc1c[nH]cn1"
Result: < 5

Request: Identify measured pKb corresponding to "Cc1ccc(S(=O)(=O)NC(=N)NCCCc2c[nH]cn2)cc1"
Result: < 5

Request: State its pKb for this compound: "N#C/N=C(/NCCCCc1c[nH]cn1)NCCCc1ccccc1"
Result: < 5

----------
Would you mind telling me the reported pKb of each entry?
- Study system: UniProt Q9Y5N1
- Sequence (Q9Y5N1 whole entry): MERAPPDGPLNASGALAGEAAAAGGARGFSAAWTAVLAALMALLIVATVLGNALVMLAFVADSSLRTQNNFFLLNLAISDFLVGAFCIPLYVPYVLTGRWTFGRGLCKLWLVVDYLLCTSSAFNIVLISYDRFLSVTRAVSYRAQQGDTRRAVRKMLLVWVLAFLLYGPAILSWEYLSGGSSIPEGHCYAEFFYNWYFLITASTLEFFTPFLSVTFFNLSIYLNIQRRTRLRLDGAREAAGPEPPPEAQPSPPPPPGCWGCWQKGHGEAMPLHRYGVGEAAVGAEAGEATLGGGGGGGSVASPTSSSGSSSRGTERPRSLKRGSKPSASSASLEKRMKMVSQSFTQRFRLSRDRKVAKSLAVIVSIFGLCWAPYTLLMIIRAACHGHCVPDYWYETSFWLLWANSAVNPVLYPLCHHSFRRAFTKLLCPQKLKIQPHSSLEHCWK
- Assay summary: Antagonist activity at human histamine H3 receptor expressed in Sf9 cells coexpressing Gialpha-2-Gbeta-1-gamma-2 and RGS4 proteins protein by steady-state GTPase assay
- Type: functional
When you answer, write just the number.

Request: Report pKb, nothing else, for this compound: "N#C/N=C(/NCCCCc1c[nH]cn1)NCCCc1cccnc1"
Result: 6.19

Request: Look up pKb of "CC(C)N/C(=N/C#N)NCCCCCc1c[nH]cn1" and report it.
Result: 6.47

Request: Specify pKb for "N#C/N=C(\NCCCc1ccccc1)NCCCc1c[nH]cn1" and stop.
Result: 5.72

Request: State its pKb: "CN/C(=N\C#N)NCCCCCc1c[nH]cn1"
Result: 6.38

Request: Name the recorded pKb of the item "N#C/N=C(/NCCCCCc1c[nH]cn1)NCCCc1ccccc1" in your answer.
Result: 6.55

Request: Name the recorded pKb of the item "NC(=O)/N=C(/NCCCCc1ccccc1)NCCCc1c[nH]cn1" in your answer.
Result: 6.51

Request: Using known records, supply pKb for "CCN/C(=N/C#N)NCCCCCc1c[nH]cn1"
Result: 6.92

Request: Quickly give me recorded pKb for CC(CCN/C(=N\C#N)NCCCCc1c[nH]cn1)c1ccccc1 (centres undefined)
Result: 6.19

Request: Write down pKb measured for item "N#C/N=C(\NCCCCCc1c[nH]cn1)NCCSc1ccccc1"
Result: 6.74

Request: Note pKb for the compound shown: "N#C/N=C(/NCCCCc1c[nH]cn1)NCCCC1CCCCC1"
Result: 5.82

Request: State its pKb: "N#C/N=C(/NCCCCc1c[nH]cn1)NCCCc1ccccc1"
Result: 5.64

Request: Give recorded pKb. "N#C/N=C(/NCCCCc1c[nH]cn1)NCCCc1ccccn1"
Result: 5.89

Request: Give the reported value of pKb for this record: "N#C/N=C(/NCCCCc1c[nH]cn1)NCCCc1ccc(F)cc1"
Result: 6.11

Request: Provide one value: measured pKb of "CC(C)CN/C(=N\C#N)NCCCCc1c[nH]cn1"
Result: 5.47

Request: Quick one: give measured pKb for "N#C/N=C(/NCCCc1ccccc1)NCCc1c[nH]cn1"
Result: 5.18

Request: Let me know recorded pKb for "Cc1ccc(S(=O)(=O)NC(=N)NCCCc2c[nH]cn2)cc1" , thanks.
Result: 6.11

Request: Determine from records and report pKb for "N=C(NCCCc1c[nH]cn1)NS(=O)(=O)CCc1ccccc1"
Result: 6.57

Request: Input "NC(=O)/N=C(\NCCCCc1c[nH]cn1)NCCCc1ccccc1" , output reported pKb.
Result: 6.44

Request: Name the recorded pKb of the compound listed here: "CC(C)CN/C(=N\C#N)NCCCCCc1c[nH]cn1"
Result: 6.57

Request: Supply measured pKb of "N#C/N=C(\NCCCCc1ccccc1)NCCCCc1c[nH]cn1" in your reply.
Result: 5.54

Request: Item "NC(=O)/N=C(/NCCCc1ccccc1)NCCc1c[nH]cn1" : provide pKb
Result: 8.42

Request: Entry "N#C/N=C(/NCCCCc1c[nH]cn1)NCCc1c[nH]c2ccccc12" needs its pKb filled in; supply it.
Result: 6.77

Request: Return pKb (reported value) for this compound: "N#C/N=C(/NCCCCc1c[nH]cn1)NCCc1ccccc1"
Result: 5.82

Request: Tell me measured pKb for "N#C/N=C(/NCCCCc1c[nH]cn1)NCCSc1ccccc1" please.
Result: 6

Request: Supply reported pKb belonging to this compound: "CCN/C(=N\C#N)NCCCCc1c[nH]cn1"
Result: 5.54

Request: # return recorded pKb for entry "N#C/N=C(/NCCCCc1c[nH]cn1)NCCCc1ccncc1"
Result: 6.11

Request: Answer with the recorded pKb for the compound listed here: "CC(C)N/C(=N\C#N)NCCCCc1c[nH]cn1"
Result: 5.49

Request: Please supply the value of reported pKb for the item "CN/C(=N\C#N)NCCCCc1c[nH]cn1"
Result: 5.68

Request: Recall and state the measured pKb for "NC(=O)/N=C(/NCCCc1ccccc1)NCCCc1c[nH]cn1" .
Result: 6.23
